Item-by-item account of drug sensitivity score
Tested on: JHOS2
Test: drug sensitivity score (DSS) from 5-point dose-response viability curve (DSS (area-under-curve based score)); higher = more sensitive (stronger growth inhibition or killing); extreme values may be limits of the assay
Conditions: exposure time: 72 h; concentration range: 5 concentrations over 10,000-fold range

[
  {
    "smilesString": "Cc1cc2c(C(=O)NC[C@H](C)c3ccccc3)c(O)c(O)cc2c(O)c1-c1c(C)cc2c(C(=O)NC[C@H](C)c3ccccc3)c(O)c(O)cc2c1O",
    "testTarget": "JHOS2",
    "drug sensitivity score": 8.1
  },
  {
    "smilesString": "O=C(Nc1cnn2ccc(N3CCC[C@@H]3c3cc(F)ccc3F)nc12)N1CC[C@H](O)C1",
    "testTarget": "JHOS2",
    "drug sensitivity score": 0
  },
  {
    "smilesString": "C[C@@]1(C(=O)Nc2ccc(F)nc2)CCCN1c1nc(Nc2cc(C3CC3)n[nH]2)c2cccn2n1",
    "testTarget": "JHOS2",
    "drug sensitivity score": 3.3
  },
  {
    "smilesString": "O=C(c1ccc(C(=O)N2CCC(N3CCCC3)CC2)c(Nc2ccccc2)c1)N1CCC(N2CCCC2)CC1",
    "testTarget": "JHOS2",
    "drug sensitivity score": 0
  },
  {
    "smilesString": "C[C@H]1O[C@@H](O[C@H]2[C@@H](O)C[C@H](O[C@H]3[C@@H](O)C[C@H](O[C@H]4CC[C@@]5(C)[C@H](CC[C@@H]6[C@@H]5C[C@@H](O)[C@]5(C)[C@@H](C7=CC(=O)OC7)CC[C@]65O)C4)O[C@@H]3C)O[C@@H]2C)C[C@H](O)[C@@H]1O",
    "testTarget": "JHOS2",
    "drug sensitivity score": 10.9
  },
  {
    "smilesString": "O=C(Nc1nc2cccc(-c3ccc(CN4CCS(=O)(=O)CC4)cc3)n2n1)C1CC1",
    "testTarget": "JHOS2",
    "drug sensitivity score": 1.1
  }
]

====

Tested on: COV318
Assay: drug sensitivity score (DSS) from 5-point dose-response viability curve (DSS (area-under-curve based score)); higher = more sensitive (stronger growth inhibition or killing); extreme values may be limits of the assay
Conditions: exposure time: 72 h; concentration range: 5 concentrations over 10,000-fold range

[
  {
    "compound": "Cc1[nH]c2ccccc2c1CCNCc1ccc(/C=C/C(=O)NO)cc1",
    "drug sensitivity score": 10.6
  },
  {
    "compound": "CO[C@H]1C[C@@H]2CC[C@@H](C)[C@@](O)(O2)C(=O)C(=O)N2CCCC[C@H]2C(=O)O[C@H]([C@H](C)C[C@@H]2CC[C@@H](OC(=O)C(C)(CO)CO)[C@H](OC)C2)CC(=O)[C@H](C)/C=C(\\C)[C@@H](O)[C@@H](OC)C(=O)[C@H](C)C[C@H](C)/C=C/C=C/C=C/1C",
    "drug sensitivity score": 0
  },
  {
    "compound": "O=C(c1cc(Cc2n[nH]c(=O)c3ccccc23)ccc1F)N1CCN(C(=O)C2CC2)CC1",
    "drug sensitivity score": 2.9
  },
  {
    "compound": "Nc1nc2[nH]cnc2c(=S)[nH]1",
    "drug sensitivity score": 0.7
  },
  {
    "compound": "CCOc1ccccc1-n1c(C(C)N2CCN(C(=O)COc3ccc(Cl)cc3)CC2)nc2ccccc2c1=O (centres undefined)",
    "drug sensitivity score": 1.9
  },
  {
    "compound": "Nc1ncnc2c1nc(Cl)n2[C@@H]1O[C@H](CO)[C@@H](O)[C@H]1O",
    "drug sensitivity score": 3.7
  },
  {
    "compound": "C=CC(=O)Nc1cccc(Oc2nc(Nc3ccc(N4CCN(C)CC4)cc3)nc3ccsc23)c1",
    "drug sensitivity score": 0.3
  },
  {
    "compound": "CC(C)C[C@H](NC(=O)[C@H](CCc1ccccc1)NC(=O)CN1CCOCC1)C(=O)N[C@@H](Cc1ccccc1)C(=O)N[C@@H](CC(C)C)C(=O)[C@@]1(C)CO1",
    "drug sensitivity score": 26.5
  },
  {
    "compound": "Cc1cc(Nc2ncnc3ccc(NC4=NC(C)(C)CO4)cc23)ccc1Oc1ccn2ncnc2c1",
    "drug sensitivity score": 0
  },
  {
    "compound": "CC(O)(CS(=O)(=O)c1ccc(F)cc1)C(=O)Nc1ccc(C#N)c(C(F)(F)F)c1 (centres undefined) [Bicalutamide]",
    "drug sensitivity score": 0
  },
  {
    "compound": "CO[C@@H](C(=O)N1Cc2[nH]nc(NC(=O)c3ccc(N4CCN(C)CC4)cc3)c2C1)c1ccccc1",
    "drug sensitivity score": 4.3
  },
  {
    "compound": "CC(C)c1c(C(=O)Nc2ccccc2)c(-c2ccccc2)c(-c2ccc(F)cc2)n1CC[C@@H](O)C[C@@H](O)CC(=O)O",
    "drug sensitivity score": 0
  },
  {
    "compound": "NC(=O)c1cccc(-c2cccc(OC(=O)NC3CCCCC3)c2)c1",
    "drug sensitivity score": 0
  },
  {
    "compound": "COc1cc2c(Oc3ccc(NC(=O)C4(C(=O)Nc5ccc(F)cc5)CC4)cc3F)ccnc2cc1OCCCN1CCOCC1",
    "drug sensitivity score": 1.3
  },
  {
    "compound": "COc1cc2c(NC3CCN(C(C)C)CC3)nc(C3CCCCC3)nc2cc1OCCCN1CCCC1",
    "drug sensitivity score": 0.6
  },
  {
    "compound": "CO[C@@]12[C@H](COC(N)=O)C3=C(C(=O)C(C)=C(N)C3=O)N1C[C@@H]1N[C@@H]12",
    "drug sensitivity score": 0
  },
  {
    "compound": "O=C(Nc1cnn2ccc(N3CCC[C@@H]3c3cc(F)ccc3F)nc12)N1CC[C@H](O)C1",
    "drug sensitivity score": 0
  },
  {
    "compound": "CNC(=O)c1ccccc1Sc1ccc2c(/C=C/c3ccccn3)n[nH]c2c1",
    "drug sensitivity score": 0
  },
  {
    "compound": "O=C(Nc1nc2cccc(-c3ccc(CN4CCS(=O)(=O)CC4)cc3)n2n1)C1CC1",
    "drug sensitivity score": 3.4
  },
  {
    "compound": "Cn1cnc2c(F)c(Nc3ccc(Br)cc3Cl)c(C(=O)NOCCO)cc21",
    "drug sensitivity score": 0
  },
  {
    "compound": "COc1cc2nccc(Oc3ccc(NC(=O)Nc4cc(C)on4)c(Cl)c3)c2cc1OC",
    "drug sensitivity score": 0.6
  },
  {
    "compound": "COC(=O)c1ccc2c(c1)[nH]c1ncnc(NCCCN3CCCCC3)c12",
    "drug sensitivity score": 0
  },
  {
    "compound": "CC1(C)CCC(CN2CCN(c3ccc(C(=O)NS(=O)(=O)c4ccc(NCC5CCOCC5)c([N+](=O)[O-])c4)c(Oc4cnc5[nH]ccc5c4)c3)CC2)=C(c2ccc(Cl)cc2)C1",
    "drug sensitivity score": 0
  },
  {
    "compound": "CS(=O)(=O)N1CCN(Cc2cc3nc(-c4cccc5[nH]ncc45)nc(N4CCOCC4)c3s2)CC1",
    "drug sensitivity score": 5.3
  },
  {
    "compound": "CC[C@@H]1C(=O)N(C)c2cnc(Nc3ccc(C(=O)N[C@H]4CC[C@H](N5CCN(CC6CC6)CC5)CC4)cc3OC)nc2N1C(C)C",
    "drug sensitivity score": 4.1
  },
  {
    "compound": "O=C(O)C1(C(=O)O)CCC1.[NH2-].[NH2-].[Pt+2]",
    "drug sensitivity score": 5.5
  },
  {
    "compound": "CN(C)C(=O)c1ccc(S(=O)(=O)c2ccc(NC(=O)[C@@](C)(O)C(F)(F)F)c(Cl)c2)cc1",
    "drug sensitivity score": 0
  },
  {
    "compound": "CNc1nc(-c2ccc3c(N)n[nH]c3c2)cc(N2C[C@@H](C(=O)NC3CCCCC3)CC[C@H]2C)n1",
    "drug sensitivity score": 0.1
  },
  {
    "compound": "CCc1cc2c(cc1N1CCC(N3CCOCC3)CC1)C(C)(C)c1[nH]c3cc(C#N)ccc3c1C2=O",
    "drug sensitivity score": 0
  }
]

====

Item-by-item account of drug sensitivity score
Test system: HOSE2C
Experiment: drug sensitivity score (DSS) from 5-point dose-response viability curve (DSS (area-under-curve based score)); higher = more sensitive (stronger growth inhibition or killing); extreme values may be limits of the assay
Settings: exposure time: 72 h; concentration range: 5 concentrations over 10,000-fold range

[
  {
    "smilesString": "FC(F)(F)c1ccc(/C=C/c2nc(COc3ccc(CCCCn4ccnn4)cc3)co2)cc1",
    "drug sensitivity score": 0
  },
  {
    "smilesString": "CN1CC[C@@H](NC(=O)Nc2ccc(C#N)cc2)C[C@@H]1c1nc2ccccc2[nH]1",
    "drug sensitivity score": 0
  },
  {
    "smilesString": "CN(C)CCCOc1ccc(-c2ccc3ncc4c(c3c2)n(C2CCOCC2)c(=O)n4C)cn1",
    "drug sensitivity score": 0
  },
  {
    "smilesString": "CC[C@H](CC#N)OC(=O)N[C@@H](C)c1cccc(NC(=O)Nc2ccc(-c3cnco3)c(OC)c2)c1",
    "drug sensitivity score": 15.8
  },
  {
    "smilesString": "CN(C(=O)c1ccc(F)cc1C(F)(F)F)C1CCN(c2nnc(-c3ccnn3C)c3ccccc23)CC1",
    "drug sensitivity score": 0
  },
  {
    "smilesString": "Nc1ncn([C@@H]2O[C@H](CO)[C@@H](O)[C@H]2O)c(=O)n1",
    "drug sensitivity score": 0
  },
  {
    "smilesString": "COC[C@H](NC(=O)c1cnc(C)s1)C(=O)N[C@@H](COC)C(=O)N[C@@H](Cc1ccccc1)C(=O)[C@@]1(C)CO1",
    "drug sensitivity score": 17.1
  },
  {
    "smilesString": "Clc1ccc(Nc2nnc(Cc3ccncc3)c3ccccc23)cc1",
    "drug sensitivity score": 0
  }
]
